Quick list: IC50 per entry.
# System Under Test: wild type HIV RT (Human immunodeficiency virus type 1 group M subtype B, UniProt P04585)
# Test Method Notes: IC50 against wild-type HIV reverse transcriptase
# Format: biochemical
# Run Parameters: Table 2, wild-type RT
Measured Property: IC50

>>> print(df.to_string())
                                   compound  readout_value
0  Cc1ccc2c(C)ccc(-n3c(Br)nnc3SCC(=O)Nc3ccc(S(N)(=O)=O)cc3Br)c2c1 [Compound 52]        < 50 nM
1  CCCc1ccc(-n2c(Br)nnc2SCC(=O)Nc2ccc(S(N)(=O)=O)cc2Cl)c2ccccc12 [Compound 55]        < 50 nM
2  N#Cc1cccc2c(-n3c(SCC(=O)Nc4ccc(S(N)(=O)=O)cc4Cl)nnc3C(F)F)cccc12 [Compound 76]   50 to 100 nM
3  CC(=O)NS(=O)(=O)c1ccc(NC(=O)CSc2nnc(Br)n2-c2ccc(C3CC3)c3ccccc23)c(Cl)c1 [Compound 48]        < 50 nM
